Entry source: patent US12122778B2

- tested_target: PKR(R510Q) (Homo sapiens, UniProt P30613, R510Q)
- Sequence (P30613 whole entry R510Q): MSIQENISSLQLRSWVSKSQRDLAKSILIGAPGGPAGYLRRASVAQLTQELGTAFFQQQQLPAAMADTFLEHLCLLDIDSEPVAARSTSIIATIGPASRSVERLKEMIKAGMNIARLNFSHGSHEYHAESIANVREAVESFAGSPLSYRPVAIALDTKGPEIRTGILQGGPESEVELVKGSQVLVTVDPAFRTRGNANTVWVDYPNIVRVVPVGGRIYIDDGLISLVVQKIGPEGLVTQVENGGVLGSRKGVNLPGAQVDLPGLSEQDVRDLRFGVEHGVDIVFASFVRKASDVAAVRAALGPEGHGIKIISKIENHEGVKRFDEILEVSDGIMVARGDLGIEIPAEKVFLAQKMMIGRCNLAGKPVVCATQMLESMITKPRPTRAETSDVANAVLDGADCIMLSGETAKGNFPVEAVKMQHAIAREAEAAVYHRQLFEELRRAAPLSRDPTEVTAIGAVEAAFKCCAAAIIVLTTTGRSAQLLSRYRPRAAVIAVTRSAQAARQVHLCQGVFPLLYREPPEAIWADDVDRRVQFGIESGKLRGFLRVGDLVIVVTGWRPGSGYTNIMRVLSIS
- method_notes: Luminescence Biochemical Assay (Kinase Glo Plus), PKR R510Q mutant
- measurement_parameters: without FBP, read-out: AC50 LUM KGP woFBP AC50 μM gmean
AC50 listing for selected compounds.

[in] Query AC50 for O=C([C@H]1CCCO1)N1CC2=C(C1)CN(S(=O)(=O)c1ccccn1)C2
[out] 1 to 40 µM

[in] Query AC50 for O=C(C1CCOCC1)N1CC2=C(C1)CN(S(=O)(=O)c1ccc3c(c1)NCCO3)C2
[out] 1 to 40 µM

[in] Query AC50 for O=C(NCc1ccc(F)cc1)N1CC2=C(C1)CN(S(=O)(=O)c1cccc3nonc13)C2
[out] 0.1 to 1 µM

Query compound follows.
[in] Query AC50 for COc1ccc(CNC(=O)N2CC3=C(C2)CN(S(=O)(=O)c2cccc(F)c2)C3)cc1
[out] 0.1 to 1 µM

---

Emax listing for selected molecules.
- tested_target: PKR(G332S) (Homo sapiens, UniProt P30613, G332S)
- Sequence (P30613 whole entry G332S): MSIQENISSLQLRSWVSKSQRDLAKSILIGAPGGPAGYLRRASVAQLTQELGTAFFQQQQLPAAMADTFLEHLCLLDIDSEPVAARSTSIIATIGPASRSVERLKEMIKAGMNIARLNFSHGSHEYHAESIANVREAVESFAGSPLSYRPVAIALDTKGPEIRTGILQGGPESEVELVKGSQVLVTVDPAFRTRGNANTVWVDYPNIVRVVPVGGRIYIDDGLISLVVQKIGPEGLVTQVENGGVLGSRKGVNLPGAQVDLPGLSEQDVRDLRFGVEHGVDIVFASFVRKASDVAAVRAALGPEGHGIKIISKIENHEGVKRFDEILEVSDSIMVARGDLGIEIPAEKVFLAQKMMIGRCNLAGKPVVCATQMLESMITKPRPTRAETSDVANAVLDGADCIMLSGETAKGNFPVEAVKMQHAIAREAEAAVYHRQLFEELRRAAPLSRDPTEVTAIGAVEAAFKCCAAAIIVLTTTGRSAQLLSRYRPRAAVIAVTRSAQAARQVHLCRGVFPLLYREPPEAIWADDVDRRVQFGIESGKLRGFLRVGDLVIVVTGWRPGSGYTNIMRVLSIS
- method_notes: Luminescence Biochemical Assay (Kinase Glo Plus), PKR G332S mutant
- measurement_parameters: with FBP, read-out: AC50 LUM KGP FBP MAX % FOLD mean
- Experimental: In some embodiments, a PKR Activating Compound can have: (1) an AC50 value of less than 0.1 μM (e.g., compounds with AC50 values of “+++” in Table 13), 0.1-1.0 μM (e.g., compounds with AC50 values of “++” in Table 13), or 1.01-40 μM (e.g., compounds with AC50 values of “+” in Table 13); (2) a MAX % Fold of 75%-250%, 250-500%, or 75%-500%; and/or (3) a % Fold@1.54 μM of 75%-250%, 250-500%, or 75%-500%. […]

[in] Report its Emax with PKR(G332S) (Homo sapiens, UniProt P30613, G332S) as the test system: Cc1ccc(CC(=O)N2CC3=C(C2)CN(S(=O)(=O)c2ccc(OC(F)F)cc2)C3)cn1 [Example 18-30]
[out] 75 to 250%

[in] Report its Emax with PKR(G332S) (Homo sapiens, UniProt P30613, G332S) as the test system: Cc1cc(COC(=O)N2CC3=C(C2)CN(S(=O)(=O)c2ccc(OC(F)F)cc2)C3)nn1C [Example 22-4]
[out] 75 to 250%

[in] Report its Emax with PKR(G332S) (Homo sapiens, UniProt P30613, G332S) as the test system: COc1ccc(CNC(=O)N2CC3=C(C2)CN(S(=O)(=O)c2cccc4cnccc24)C3)cc1 [Example 20-11]
[out] 75 to 250%

[in] Report its Emax with PKR(G332S) (Homo sapiens, UniProt P30613, G332S) as the test system: CN1CCOc2ccc([C@@H](O)C(=O)N3CC4=C(C3)CN(S(=O)(=O)c3ccc(OC(F)F)cc3)C4)cc21 (single isomer, unassigned) [Example 10-1]
[out] 75 to 250%

[in] Report its Emax with PKR(G332S) (Homo sapiens, UniProt P30613, G332S) as the test system: O=C([C@H](O)c1ccccc1)N1CC2=C(C1)CN(S(=O)(=O)c1cccnc1C(F)(F)F)C2 [Example 4-2]
[out] 75 to 250%

Others:
[in] Report its Emax with PKR(G332S) (Homo sapiens, UniProt P30613, G332S) as the test system: O=C([C@@H](O)c1ccc2c(c1)NCCO2)N1CC2=C(C1)CN(S(=O)(=O)c1ccc(OC(F)F)cc1)C2 (single isomer, unassigned) [Example 9-5]
[out] 75 to 250%

[in] Report its Emax with PKR(G332S) (Homo sapiens, UniProt P30613, G332S) as the test system: COc1ccccc1CNC(=O)N1CC2=C(C1)CN(S(=O)(=O)c1ccc3ncsc3c1)C2 [Example 21-18]
[out] 75 to 250%

---

- tested_target: PKR(wt) (Homo sapiens)
- Sequence (P30613 whole entry): as the sequence (P30613 whole entry R510Q) above, with Q510R counted along it
- method_notes: Luminescence Biochemical Assay (Kinase Glo Plus), wild type PKR
- measurement_parameters: without FBP, read-out: AC50 LUM KGP woFBP MAX % FOLD mean
endpoint: Emax

Below: 5 molecules and their reported Emax.
[in] Query Emax for O=C(Cc1ncccn1)N1CC2=C(C1)CN(S(=O)(=O)c1ccc(OC(F)F)cc1)C2
[out] 250 to 500%

[in] Query Emax for CS(=O)(=O)NCC(=O)N1CC2=C(C1)CN(S(=O)(=O)c1ccc3occc3c1)C2
[out] 75 to 250%

[in] Query Emax for O=C(NCc1ccc(F)cc1)N1CC2=C(C1)CN(S(=O)(=O)c1ccccn1)C2
[out] 250 to 500%

[in] Query Emax for COc1ccccc1CNC(=O)N1CC2=C(C1)CN(S(=O)(=O)c1ccc3ncsc3c1)C2
[out] 250 to 500%

[in] Query Emax for O=C([C@H](O)c1ccccc1)N1CC2=C(C1)CN(S(=O)(=O)c1ccc(F)c(F)c1)C2
[out] 75 to 250%

Query molecule follows.
[in] Query Emax for NS(=O)(=O)c1cccc(S(=O)(=O)N2CC3=C(CN(C(=O)[C@H](O)c4ccccc4)C3)C2)c1
[out] 75 to 250%

---

- tested_target: PKR(wt) (Homo sapiens)
- method_notes: Luminescence Biochemical Assay (Kinase Glo Plus), wild type PKR
- measurement_parameters: without FBP, read-out: AC50 LUM KGP woFBP AC50 μM gmean
AC50 listing for selected compounds.

Below: 2 compounds and their reported AC50.
[in] Report its AC50 with PKR(wt) (Homo sapiens) as the test system: O=C(NCC1CCCO1)N1CC2=C(C1)CN(S(=O)(=O)c1ccc3occc3c1)C2 (stereo not drawn)
[out] 0.1 to 1 µM

[in] Report its AC50 with PKR(wt) (Homo sapiens) as the test system: Cc1ccc(F)c(S(=O)(=O)N2CC3=C(CN(C(=O)[C@H](O)c4ccccc4)C3)C2)c1
[out] ≤ 0.1 µM

Others:
[in] Report its AC50 with PKR(wt) (Homo sapiens) as the test system: O=C(NCc1ccc(F)cc1)N1CC2=C(C1)CN(S(=O)(=O)c1ccc(C(F)(F)F)nc1)C2
[out] 1 to 40 µM

[in] Report its AC50 with PKR(wt) (Homo sapiens) as the test system: O=C(c1ccccn1)N1CC2=C(C1)CN(S(=O)(=O)c1ccc3occc3c1)C2
[out] 1 to 40 µM

[in] Report its AC50 with PKR(wt) (Homo sapiens) as the test system: COc1ccc(CNC(=O)N2CC3=C(C2)CN(S(=O)(=O)c2ccc(OC(F)F)cc2)C3)cc1
[out] ≤ 0.1 µM

[in] Report its AC50 with PKR(wt) (Homo sapiens) as the test system: O=C(C(O)c1ccc(C(F)(F)F)cc1)N1CC2=C(C1)CN(S(=O)(=O)c1ccc(OC(F)F)cc1)C2 (stereo not drawn)
[out] 0.1 to 1 µM

---

- tested_target: PKR(wt) (Homo sapiens)
- method_notes: Luminescence Biochemical Assay (Kinase Glo Plus), wild type PKR
- measurement_parameters: without FBP, read-out: AC50 LUM KGP woFBP MAX % FOLD mean
endpoint: Emax

Below: 3 compounds and their reported Emax.
[in] Query Emax for CC(=O)Nc1ccc(S(=O)(=O)N2CC3=C(CN(C(=O)[C@H](O)c4ccccc4)C3)C2)cc1
[out] 75 to 250%

[in] Query Emax for O=C([C@H](O)c1ccccc1)N1CC2=C(C1)CN(S(=O)(=O)c1ccccn1)C2
[out] 75 to 250%

[in] Query Emax for O=C(Cc1ccccn1)N1CC2=C(C1)CN(S(=O)(=O)c1ccc(OC(F)F)cc1)C2
[out] 250 to 500%

Others:
[in] Query Emax for CC(C)(O)C(=O)N1CC2=C(C1)CN(S(=O)(=O)c1ccc3occc3c1)C2
[out] 250 to 500%

[in] Query Emax for O=C(NCc1cnccn1)N1CC2=C(C1)CN(S(=O)(=O)c1ccc3ncsc3c1)C2
[out] 250 to 500%

[in] Query Emax for O=C(Cn1cccn1)N1CC2=C(C1)CN(S(=O)(=O)c1ccc(OC(F)F)cc1)C2
[out] 250 to 500%

[in] Query Emax for O=C(C1OCCc2ccccc21)N1CC2=C(C1)CN(S(=O)(=O)c1ccc(OC(F)F)cc1)C2 (centres unmarked)
[out] 250 to 500%

[in] Query Emax for CC(C)Oc1ccc(CNC(=O)N2CC3=C(C2)CN(S(=O)(=O)c2ccc4ncsc4c2)C3)cc1
[out] 75 to 250%

---

- tested_target: PKR(R510Q) (Homo sapiens, UniProt P30613, R510Q)
- method_notes: Luminescence Biochemical Assay (Kinase Glo Plus), PKR R510Q mutant
- measurement_parameters: without FBP, 1.54 μM compound, read-out: AC50 LUM KGP woFBP % Fold@1.54 μM mean
activation at 1.54 µM listing for selected compounds.

Below: 5 compounds and their reported activation at 1.54 µM.
[in] Report its activation at 1.54 µM with PKR(R510Q) (Homo sapiens, UniProt P30613, R510Q) as the test system: O=C([C@@H]1CCCO1)N1CC2=C(C1)CN(S(=O)(=O)c1ccccn1)C2 [Example 18-69]
[out] 75 to 250%

[in] Report its activation at 1.54 µM with PKR(R510Q) (Homo sapiens, UniProt P30613, R510Q) as the test system: Cc1cc(COC(=O)N2CC3=C(C2)CN(S(=O)(=O)c2ccc(OC(F)F)cc2)C3)no1 [Example 22-5]
[out] 250 to 50000%

[in] Report its activation at 1.54 µM with PKR(R510Q) (Homo sapiens, UniProt P30613, R510Q) as the test system: O=C(NCc1cnco1)N1CC2=C(C1)CN(S(=O)(=O)c1ccc(F)cc1)C2 [Example 5-1]
[out] 75 to 250%

[in] Report its activation at 1.54 µM with PKR(R510Q) (Homo sapiens, UniProt P30613, R510Q) as the test system: O=C(NCc1ccc(F)cc1)N1CC2=C(C1)CN(S(=O)(=O)c1cccc3nonc13)C2 [Example 20-24]
[out] 75 to 250%

[in] Report its activation at 1.54 µM with PKR(R510Q) (Homo sapiens, UniProt P30613, R510Q) as the test system: O=C(Cc1ccc[nH]1)N1CC2=C(C1)CN(S(=O)(=O)c1ccc(OC(F)F)cc1)C2 [Example 18-27]
[out] 75 to 250%

Others:
[in] Report its activation at 1.54 µM with PKR(R510Q) (Homo sapiens, UniProt P30613, R510Q) as the test system: O=C(Cn1cnnn1)N1CC2=C(C1)CN(S(=O)(=O)c1ccc(OC(F)F)cc1)C2 [Example 18-19]
[out] 250 to 50000%

[in] Report its activation at 1.54 µM with PKR(R510Q) (Homo sapiens, UniProt P30613, R510Q) as the test system: O=C(N1CCOCC1)N1CC2=C(C1)CN(S(=O)(=O)c1ccc3ncsc3c1)C2 [Example 6-1]
[out] 75 to 250%

[in] Report its activation at 1.54 µM with PKR(R510Q) (Homo sapiens, UniProt P30613, R510Q) as the test system: O=C(N1CC2=C(C1)CN(S(=O)(=O)c1cccc3cccnc13)C2)N1CC(O)(Cc2ccccc2)C1 [Example 12-1]
[out] 75 to 250%
